assay_system: GluR1 (Rattus norvegicus)
Sequence (P19490 19-907): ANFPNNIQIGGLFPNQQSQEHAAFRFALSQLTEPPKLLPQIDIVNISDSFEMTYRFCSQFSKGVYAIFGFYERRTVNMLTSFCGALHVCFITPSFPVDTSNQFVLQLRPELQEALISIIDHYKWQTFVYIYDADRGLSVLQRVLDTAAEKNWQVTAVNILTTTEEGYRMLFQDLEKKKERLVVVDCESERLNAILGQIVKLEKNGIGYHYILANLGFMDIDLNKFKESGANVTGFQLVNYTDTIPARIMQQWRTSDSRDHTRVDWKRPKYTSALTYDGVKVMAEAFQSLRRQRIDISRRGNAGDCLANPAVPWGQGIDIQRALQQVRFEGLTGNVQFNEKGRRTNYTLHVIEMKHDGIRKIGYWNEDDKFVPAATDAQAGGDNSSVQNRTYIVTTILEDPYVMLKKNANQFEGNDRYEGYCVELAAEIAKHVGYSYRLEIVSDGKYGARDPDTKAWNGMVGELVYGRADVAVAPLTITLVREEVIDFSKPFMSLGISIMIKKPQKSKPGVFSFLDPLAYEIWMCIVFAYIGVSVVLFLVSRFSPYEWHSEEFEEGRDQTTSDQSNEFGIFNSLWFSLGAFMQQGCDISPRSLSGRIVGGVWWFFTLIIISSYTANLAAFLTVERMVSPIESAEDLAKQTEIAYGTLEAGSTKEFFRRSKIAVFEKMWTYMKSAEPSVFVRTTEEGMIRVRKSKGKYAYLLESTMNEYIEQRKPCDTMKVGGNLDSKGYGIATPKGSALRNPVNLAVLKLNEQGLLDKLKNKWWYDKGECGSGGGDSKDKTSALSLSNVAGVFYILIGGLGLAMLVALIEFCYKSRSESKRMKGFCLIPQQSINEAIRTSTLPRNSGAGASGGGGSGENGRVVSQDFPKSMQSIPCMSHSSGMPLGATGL
assay_remarks: Two electrode voltage clamp, Xenopus oocytes expressing GluR1
Type: cell-based
measurement_setup: read-out: GluR1 percent effect at the maximum tested concentration
experimental_endpoint: remaining activity at 100 µM
Number first, unit second: that is the form wanted.

Worked cases, answers included:
>  <molecule>
CC(C)N(C(=O)Oc1ccc(C(=O)Nc2cccc3ccccc23)cc1)C(C)C [1063-4]

>  <remaining activity at 100 µM>
130%

$$$$
>  <molecule>
C=CCN(CC=C)C(=O)Oc1ccc(C(=O)Nc2cccc3ccccc23)cc1 [1063-5]

>  <remaining activity at 100 µM>
103%

$$$$
>  <molecule>
CC(C)N(C(=O)Oc1ccc(C(=O)Oc2ccc3cccc(N)c3c2)cc1)C(C)C [1063-13]

>  <remaining activity at 100 µM>
117%

$$$$
>  <molecule>
CCN(CC)C(=O)Oc1ccc(C(=O)Nc2cc(C(=O)OC)cc3c(C)c[nH]c23)cc1 [1063-35]

>  <remaining activity at 100 µM>
97%

$$$$
>  <molecule>
CCN(CC)C(=O)Oc1ccc(C(=O)Nc2cc(C)cc3c(C)c[nH]c23)cc1 [1063-34]

>  <remaining activity at 100 µM>
85%

$$$$

For record CCN(CC)C(=O)Oc1ccc(C(=O)Nc2cccc3ccccc23)cc1 [1063-2] the listed remaining activity at 100 µM is 118%

Value of measured remaining activity at 100 µM for the entry CCN(CC)C(=O)Oc1ccc(C(=O)Nc2cccc3cc[nH]c23)cc1 [1063-20] : 92%

###

assay_system: NR1/NR2B (Rattus norvegicus)
assay_remarks: Two electrode voltage clamp, Xenopus oocytes expressing recombinant NR1/NR2B
measurement_setup: logistic fit, minimum forced to 0; read-out: 2B IC50
Protocol: Quality of synthesized cRNA was assessed by gel electrophoresis, and quantity was estimated by spectroscopy and gel electrophoresis. […] Two electrode voltage-clamp recordings were made 2-7 days post-injection as previously described. […] Oocytes were recorded under voltage clamp at −40 mV. […] The baseline leak current at −40 mV was measured before and after recording, and the full recording linearly corrected for any change in leak current. […]
experimental_endpoint: IC50 (µM)
Provide the reading as a plain figure in µM.

# IC50 measured on NR1/NR2B (Rattus norvegicus) for item O=C(O)CCC(=O)N1N=C(c2c(-c3ccccc3)c3cc(Cl)ccc3[nH]c2=O)CC1c1ccc(Br)cc1 (stereo not shown) = 22

###

assay_system: NR1/NR2B (Rattus norvegicus, UniProt P35439+Q00960)
Sequence (Q00960 27-1482, other chains not shown): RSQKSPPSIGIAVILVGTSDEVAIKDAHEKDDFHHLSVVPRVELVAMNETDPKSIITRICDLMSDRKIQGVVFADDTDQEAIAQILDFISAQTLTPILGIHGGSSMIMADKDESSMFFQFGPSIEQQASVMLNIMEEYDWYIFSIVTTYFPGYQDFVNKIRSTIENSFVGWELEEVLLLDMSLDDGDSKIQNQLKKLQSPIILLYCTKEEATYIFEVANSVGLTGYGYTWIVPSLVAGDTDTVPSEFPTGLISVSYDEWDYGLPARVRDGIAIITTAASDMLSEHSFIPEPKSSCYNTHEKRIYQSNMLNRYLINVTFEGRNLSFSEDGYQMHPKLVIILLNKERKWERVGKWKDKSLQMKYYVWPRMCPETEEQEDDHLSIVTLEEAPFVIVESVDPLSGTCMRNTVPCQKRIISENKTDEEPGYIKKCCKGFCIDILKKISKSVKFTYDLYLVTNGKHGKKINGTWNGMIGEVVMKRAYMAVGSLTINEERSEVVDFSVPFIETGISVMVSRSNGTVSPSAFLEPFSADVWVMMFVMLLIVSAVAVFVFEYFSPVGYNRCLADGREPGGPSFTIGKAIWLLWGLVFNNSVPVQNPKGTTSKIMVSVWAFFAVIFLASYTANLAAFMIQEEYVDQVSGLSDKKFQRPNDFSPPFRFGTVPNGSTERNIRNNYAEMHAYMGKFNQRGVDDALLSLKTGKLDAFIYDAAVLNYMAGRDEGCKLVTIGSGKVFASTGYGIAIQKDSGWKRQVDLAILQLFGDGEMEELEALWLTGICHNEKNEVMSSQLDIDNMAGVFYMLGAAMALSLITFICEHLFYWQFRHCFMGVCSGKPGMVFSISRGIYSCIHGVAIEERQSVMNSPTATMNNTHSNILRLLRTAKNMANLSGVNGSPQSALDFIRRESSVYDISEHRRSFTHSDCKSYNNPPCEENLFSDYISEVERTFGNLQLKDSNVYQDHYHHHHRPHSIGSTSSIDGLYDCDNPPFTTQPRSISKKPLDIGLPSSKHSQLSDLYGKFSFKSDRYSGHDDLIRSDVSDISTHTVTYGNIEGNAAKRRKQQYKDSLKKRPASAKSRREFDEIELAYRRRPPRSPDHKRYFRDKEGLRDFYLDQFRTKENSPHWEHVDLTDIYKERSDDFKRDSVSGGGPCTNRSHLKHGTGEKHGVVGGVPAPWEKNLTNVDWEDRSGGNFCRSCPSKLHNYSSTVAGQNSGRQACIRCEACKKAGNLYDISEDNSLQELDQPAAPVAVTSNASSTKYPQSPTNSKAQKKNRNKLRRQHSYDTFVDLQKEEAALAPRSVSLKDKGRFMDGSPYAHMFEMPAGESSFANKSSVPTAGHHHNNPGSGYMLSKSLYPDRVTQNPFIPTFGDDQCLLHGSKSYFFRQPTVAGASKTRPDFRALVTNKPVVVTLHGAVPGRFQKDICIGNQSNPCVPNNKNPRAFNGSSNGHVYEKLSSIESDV
assay_remarks: Two electrode voltage clamp, Xenopus oocytes expressing recombinant NR1/NR2B
Format: cell-based
measurement_setup: logistic fit, minimum forced to 0; read-out: 2B IC50
experimental_endpoint: IC50 (µM)
Report as a plain number; the unit µM is understood.

>  <molecule>
O=C(Nc1cccc2ccccc12)c1ccc(OC(=O)N2CCCC2)cc1

>  <IC50 [µM]>
502

$$$$
>  <molecule>
O=C(Nc1cccc2ccccc12)c1ccc2oc(=O)[nH]c2c1

>  <IC50 [µM]>
334

$$$$
>  <molecule>
O=C(O)CCC(=O)N1N=C(c2c(-c3ccccc3)c3cc(Br)ccc3[nH]c2=O)CC1c1ccc(F)cc1 (centres unmarked)

>  <IC50 [µM]>
90

$$$$

Value of measured IC50 for the entry O=C(O)CCC(=O)N1N=C(c2c(-c3ccccc3)c3cc(Cl)ccc3[nH]c2=O)CC1c1cccc(Br)c1 (centres unmarked) : 30

Data point: O=C(O)CCC(=O)N1N=C(c2c(-c3ccccc3)c3cc(Br)ccc3[nH]c2=O)CC1c1ccc(Br)cc1 (centres unmarked) ; IC50 = 19

Lookup result for Cc1nc2ccc(Br)cc2c(-c2ccccc2)c1C1=NN(C(=O)CCC(=O)O)C(c2ccc(Br)cc2)C1 (centres unmarked) ; measured IC50: 209

Summary for this molecule, CCN(CC)C(=S)Oc1ccc(C(=O)Nc2cccc3ccccc23)cc1 : IC50 is 1230

Summary for this molecule, O=C(O)CCC(=O)N1N=C(c2c(-c3ccccc3)c3cc(Br)ccc3[nH]c2=O)CC1c1ccccc1Cl (centres unmarked) : IC50 is 35
